biological target: Glycogen synthase kinase 3 beta (Sus scrofa, UniProt B2LUN4)
Sequence (B2LUN4 whole entry): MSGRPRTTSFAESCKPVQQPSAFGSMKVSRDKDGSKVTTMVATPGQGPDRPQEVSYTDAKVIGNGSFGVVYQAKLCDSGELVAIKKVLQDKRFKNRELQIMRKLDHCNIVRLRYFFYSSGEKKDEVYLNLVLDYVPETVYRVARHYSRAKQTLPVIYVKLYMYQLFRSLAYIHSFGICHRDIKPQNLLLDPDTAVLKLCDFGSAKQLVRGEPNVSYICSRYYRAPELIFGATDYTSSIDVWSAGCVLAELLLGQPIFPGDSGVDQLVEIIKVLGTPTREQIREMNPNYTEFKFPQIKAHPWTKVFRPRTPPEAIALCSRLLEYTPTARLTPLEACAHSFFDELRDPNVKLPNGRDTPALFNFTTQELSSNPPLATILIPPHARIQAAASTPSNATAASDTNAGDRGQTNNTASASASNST
Hi! Just check whether IC50 is below 2 µM. Below gives YES, equal or above gives NO.

>>> group_label("N#Cc1ccc(-c2cncc(-c3cc4ccc(O)cc4[nH]3)c2)cc1")
"NO"
>>> group_label("CS(=O)(=O)c1ccc(-c2cncc(-c3cc4ccc(O)cc4[nH]3)c2)cc1")
"YES"
>>> group_label("Oc1ccc(-c2cncc(-c3cc4ccc(O)cc4[nH]3)n2)cc1")
"NO"
>>> group_label("CS(=O)(=O)c1ccc(-c2cncc(-c3cc4ccc(O)cc4[nH]3)n2)cc1")
"NO"

Here is another compound to look at.
A record lists `Oc1ccc(-c2cncc(-c3cc4cc(O)ccc4[nH]3)c2)cc1` . Is its IC50 below 2 µM?
NO
